I'd appreciate it if you could supply IC50 values for the items below.
System: MCF7
Assay: cells
Conditions: Homo sapiens, MCF7, 72 h
Note to self: number, then unit, no commentary.

Need IC50 of COCCOc1ncc2c(n1)CCN(C(=O)c1cc(C(C)C)c(O)cc1O)C2 , thanks.
120 nM

Need IC50 of CC(C)c1cc(C(=O)N2CCc3nc(OC4CCCCC4)ncc3C2)c(O)cc1O , thanks.
1870 nM

Need IC50 of CC(C)c1cc(C(=O)N2CCc3nc(N4CCOCC4)ncc3C2)c(O)cc1O , thanks.
1820 nM

Need IC50 of CC(=O)N1CCN(c2ncc3c(n2)CCN(C(=O)c2cc(C(C)C)c(O)cc2O)C3)CC1 , thanks.
3620 nM

Need IC50 of CC(C)c1cc(C(=O)N2Cc3ccc(CN4CCN(C)CC4)cc3C2)c(O)cc1O , thanks.
20 nM

Need IC50 of COc1ncc2c(n1)CCN(C(=O)c1cc(C(C)C)c(O)cc1O)C2 , thanks.
630 nM

Need IC50 of COCCOc1nc2c(c(NC3CC3)n1)CN(C(=O)c1cc(C(C)C)c(O)cc1O)CC2 , thanks.
160 nM

Need IC50 of CC(C)c1cc(C(=O)N2CCc3nc(OC4CCCC4)ncc3C2)c(O)cc1O , thanks.
1190 nM

Need IC50 of CCCCOc1ncc2c(n1)CCN(C(=O)c1cc(C(C)C)c(O)cc1O)C2 , thanks.
880 nM

Need IC50 of CC(C)c1cc(C(=O)N2CCc3nc(OCCN(C)C)ncc3C2)c(O)cc1O , thanks.
1580 nM

Need IC50 of CC(C)Oc1ncc2c(n1)CCN(C(=O)c1cc(C(C)C)c(O)cc1O)C2 , thanks.
960 nM

Need IC50 of COCCOc1nc2c(c(N(C)C)n1)CN(C(=O)c1cc(C(C)C)c(O)cc1O)CC2 , thanks.
330 nM

Need IC50 of Cc1ncc2c(n1)CCN(C(=O)c1cc(Br)c(O)cc1O)C2 , thanks.
1730 nM

Need IC50 of CCN(CC)CCOc1ncc2c(n1)CCN(C(=O)c1cc(C(C)C)c(O)cc1O)C2 , thanks.
2900 nM

Need IC50 of Cc1ncc2c(n1)CCN(C(=O)c1cc(C(C)C)c(O)cc1O)C2 , thanks.
1480 nM

Need IC50 of CC(C)c1cc(C(=O)N2CCc3nc(OCCN4CCOCC4)ncc3C2)c(O)cc1O , thanks.
1230 nM

Need IC50 of Cc1ncc2c(n1)CN(C(=O)c1cc(Cl)c(O)cc1O)C2 , thanks.
5480 nM
